Biological target: human PD1-PDL1 interaction (Homo sapiens, UniProt Q9NZQ7)
Construct: purchased Perkin Elmer
Sequence (Q9NZQ7 19-238 limits assumed): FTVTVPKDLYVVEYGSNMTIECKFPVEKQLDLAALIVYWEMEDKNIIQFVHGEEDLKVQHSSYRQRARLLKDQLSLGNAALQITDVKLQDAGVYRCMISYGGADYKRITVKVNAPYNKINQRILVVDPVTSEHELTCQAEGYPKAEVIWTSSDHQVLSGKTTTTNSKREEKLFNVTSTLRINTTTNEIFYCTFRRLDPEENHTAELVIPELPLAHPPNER
Test: HTRF human PD1-PDL1 binding assay
Settings: dose–response 0–100 µM; listed as CRT5
Experimental: The homogeneous time-resolved fluorescence (HTRF) binding assay was used to test these top 20 molecules for their potential blockade of human PD1-PDL1 interaction. […] The potential activity of our virtual hits in inhibiting PD1-PDL1 interaction was investigated using the homogeneous time-resolved fluorescence (HTRF) binding assay from Perkin Elmer. The assay was carried out according to the manufacturer’s instructions using the HTRF protocol in BioTek Synergy Neo^TM microplate reader. […]
pIC50: −log10 of the molar value.
OBSERVED_PROPERTY: pIC50

MOLECULE	TARGET	OBSERVED_PROPERTY	READOUT_VALUE
CCOc1ccc2cc(-c3cc(-c4cccc(C(=O)NCCN(C)C)c4)cnc3N)ccc2c1 [Compound 1]	human PD1-PDL1 interaction (Homo sapiens, UniProt Q9NZQ7)	pIC50	4.65

---

Target: human PD1-PDL1 interaction (Homo sapiens, UniProt Q9NZQ7)
Construct: purchased Perkin Elmer
Assay: HTRF human PD1-PDL1 binding assay
Conditions: dose–response 0–100 µM
Experimental: The homogeneous time-resolved fluorescence (HTRF) binding assay was used to test these top 20 molecules for their potential blockade of human PD1-PDL1 interaction. […] The potential activity of our virtual hits in inhibiting PD1-PDL1 interaction was investigated using the homogeneous time-resolved fluorescence (HTRF) binding assay from Perkin Elmer. The assay was carried out according to the manufacturer’s instructions using the HTRF protocol in BioTek Synergy Neo^TM microplate reader. […]
pIC50: −log10 of the molar value.

COMPOUND	pIC50
C[C@@](N)(CO)CCc1ccc(OCc2ccc(Cl)c(Cl)c2)cc1	~4.47

---

biological target: human PD1-PDL1 interaction (Homo sapiens); construct: purchased Perkin Elmer; assay: HTRF human PD1-PDL1 binding assay; conditions: dose–response 0–100 µM; listed as P053
pIC50: −log10 of the molar value.

COMPOUND	pIC50
C[C@@](N)(CO)CCc1ccc(OCc2ccc(Cl)c(Cl)c2)cc1	4.47
